Assign Activity to each entry below.
- System: Pseudomonas aeruginosa
- testProtocol: Anti-biofilm activity against Pseudomonas aeruginosa PAO1 harboring wspF gene mutation assessed as reduction on c-di-GMP level by measuring GFP fluorescence at 100 uM incubated for 24 hrs […]
- Assay type: functional
- Set-up: scale not given: the % may be the effect or the level left
One number for each entry, in %.

Here are 4 compounds together with their reported answers.
N=C1/C(=N\Nc2ccccc2F)C(N)=NN1S(=O)(=O)c1ccc(N)cc1 = 0
N=C1ON=C(N)/C1=N/Nc1ccccc1O = 0
NNc1ccccc1F = 0
N=C1ON=C(N)/C1=N/Nc1c(O)cccc1F = 0

Provide reported Activity for each item, in the same order as listed.
1. N=C1NN=C(N)/C1=N/Nc1ccccc1Cl
2. N=C1NN=C(N)/C1=N/Nc1ccccc1
3. N=C1NN=C(N)/C1=N/Nc1c(F)cc(F)cc1F
4. N=C1/C(=N\Nc2ccccc2F)C(N)=NN1c1ccc(C(=O)O)cc1
5. N=C1NN=C(N)/C1=N/Nc1c(Br)cccc1Br
6. COc1ccc(NN=C2C(N)=NN=C2N)cc1
7. N=C1/C(=N\Nc2ccccc2F)C(N)=NN1S(=O)(=O)c1ccccc1

### Response
[0, 71, 30, 0, 0, 0, 0]

Quick batch: Activity for everything below.
1. CC(=O)NC1=NN(C(C)=O)C(=N)/C1=N\Nc1ccccc1F
2. N=C1NN=C(N)/C1=N/Nc1cc(Br)ccc1F
3. N=C1NN=C(N)/C1=N/Nc1c(F)cccc1Br
4. N=C1NN=C(N)/C1=N/Nc1c(F)cccc1F
5. N=C1NN=C(N)/C1=N/Nc1c(O)cccc1F

### Response
1: 0; 2: 0; 3: 0; 4: 77; 5: 75

Quick request: Activity for each listed item, please.
1. N=C1NN=C(N)/C1=N/Nc1ccccc1F
2. N=C1NN=C(N)/C1=N/Nc1c(F)ccc(F)c1F
3. N=C1NN=C(N)/C1=N/Nc1cc(F)ccc1Br
4. N=C1/C(=N\Nc2ccccc2F)C(N)=NN1C(=O)c1ccccc1
5. N=C1NN=C(N)C1c1ccc2ccccc2n1 (centres undefined)
6. N=C1NN=C(N)/C1=N/Nc1ccccc1Br
7. N=C1NN=C(N)/C1=N/Nc1ccccc1C(F)(F)F
8. NC1=NNC(=O)/C1=N\Nc1ccccc1F

### Response
1. 83
2. 61
3. 0
4. 0
5. 0
6. 0
7. 0
8. 0
